# target.or.test.system: T1, recombinant human IL4Rα-his protein (in house made) (human, UniProt P24394 26-232, limits assumed)
# T1 construct: also called Human IL4Ra-his
# protocol.description: SPR (Biacore), antibody captured, IL4Rα-his flowed
property: pKd
pKd is defined as minus the log10 of a concentration measured in mol/L.

What does the data say about its pKd? Entry: huB8G11F2B7G5E8-V2 (antibody, human IgG4 S228P, kappa, V domains shown, Humanized, human IgG4/kappa; also called huBSG11F2B7G5E8-V2) VH: EVQLVQSGAEVKKPGATVKISCKVSGFNIKDTYMHWVKQAPGKGLEWVGRIDPTNGYTIYASKFQGKATITADTSSNTAYMELSSLRSEDTAVYHCVSRRPWFAYWGQGTLVTVSS VL: DIVMTQTPLSLSVTPGQPASISCRSSQSIVHSNGNTYLEWYLQKPGQSPQLLIYKVTNRFSGVPDRFSGSGSGTDFTLKISRVEAEDVGVYYCFQGSHVPYTFGQGTKLEIKR
8.51

What does the data say about its pKd? Entry: huB8G11F2B7G5E8-V8 (antibody, human IgG4 S228P, kappa, V domains shown, Humanized, human IgG4/kappa; also called huBSG11F2B7G5E8-V8) VH: EVQLVQSGAEVKKPGATVKISCKASGFNIKDTYMHWVKQAPGKGLEWVGRIDPTNGYTIYASKFQGKATITADTSSDTAYMELSSLRSEDTAVYHCVSRRPWFAYWGQGTLVTVSS VL: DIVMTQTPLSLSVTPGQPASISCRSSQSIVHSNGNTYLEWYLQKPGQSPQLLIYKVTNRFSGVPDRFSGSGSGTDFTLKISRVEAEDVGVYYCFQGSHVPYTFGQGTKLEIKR
8.31

What does the data say about its pKd? Entry: huB8G11F2B7G5E8-V14 (antibody, human IgG4 S228P, kappa, V domains shown, Humanized, human IgG4/kappa; also called huBSG11F2B7G5E8-V14) VH: EVQLVQSGAEVKKPGATVKISCKVSGFNIKDTYMHWVKQAPGKGLEWMGRIDPTNGYTIYASKFQGKATITADTSSNTAYMELSSLRSEDTAVYHCVSRRPWFAYWGQGTLVTVSS VL: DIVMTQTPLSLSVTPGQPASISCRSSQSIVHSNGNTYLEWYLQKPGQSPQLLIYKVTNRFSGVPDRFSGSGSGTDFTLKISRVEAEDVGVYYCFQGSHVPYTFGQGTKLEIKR
8.43

What does the data say about its pKd? Entry: huB8G11F2B7G5E8-V6 (antibody, human IgG4 S228P, kappa, V domains shown, Humanized, human IgG4/kappa; also called huBSG11F2B7G5E8-V6) VH: EVQLVQSGAEVKKPGATVKISCKASGFNIKDTYMHWVKQAPGKGLEWVGRIDPTNGYTIYASKFQGKVTITADTSSNTAYMELSSLRSEDTAVYHCVSRRPWFAYWGQGTLVTVSS VL: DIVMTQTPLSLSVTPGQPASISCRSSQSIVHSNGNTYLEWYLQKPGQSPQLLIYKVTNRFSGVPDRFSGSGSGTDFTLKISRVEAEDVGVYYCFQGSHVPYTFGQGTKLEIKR
8.40

What does the data say about its pKd? Entry: huB8G11F2B7G5E8-V13 (antibody, human IgG4 S228P, kappa, V domains shown, Humanized, human IgG4/kappa; also called huBSG11F2B7G5E8-V13) VH: QVQLQQSGAELVKPGASVKLSCTASGFNIKDTYMHWVKQRPEQGLEWVGRIDPTNGYTIYASKFQGKATITADTSSNTAYMQLSSLTSEDTAVYHCVSRRPWFAYWGQGTTLTVSS VL: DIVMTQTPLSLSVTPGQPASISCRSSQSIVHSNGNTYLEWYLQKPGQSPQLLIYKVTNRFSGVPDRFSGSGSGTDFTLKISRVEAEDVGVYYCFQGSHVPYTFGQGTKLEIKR
8.41

What does the data say about its pKd? Entry: huB8G11F2B7G5E8-V4 (antibody, human IgG4 S228P, kappa, V domains shown, Humanized, human IgG4/kappa; also called huBSG11F2B7G5E8-V4) VH: EVQLVQSGAEVKKPGATVKISCKASGFNIKDTYMHWVKQAPGKGLEWMGRIDPTNGYTIYASKFQGKATITADTSSNTAYMELSSLRSEDTAVYHCVSRRPWFAYWGQGTLVTVSS VL: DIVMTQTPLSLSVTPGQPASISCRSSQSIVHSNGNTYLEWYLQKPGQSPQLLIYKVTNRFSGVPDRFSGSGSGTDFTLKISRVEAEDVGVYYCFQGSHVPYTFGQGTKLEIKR
8.49

What does the data say about its pKd? Entry: huB8G11F2B7G5E8-V9 (antibody, human IgG4 S228P, kappa, V domains shown, Humanized, human IgG4/kappa; also called huBSG11F2B7G5E8-V9) VH: EVQLVQSGAEVKKPGATVKISCKASGFNIKDTYMHWVKQAPGKGLEWVGRIDPTNGYTIYASKFQGKATITADTSSNTAYMELSSLRSEDTAVYYCVSRRPWFAYWGQGTLVTVSS VL: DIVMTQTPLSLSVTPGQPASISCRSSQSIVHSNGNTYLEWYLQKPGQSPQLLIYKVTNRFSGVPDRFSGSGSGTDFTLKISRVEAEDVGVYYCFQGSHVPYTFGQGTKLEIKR
8.27

What does the data say about its pKd? Entry: huB8G11F2B7G5E8-V11 (antibody, human IgG4 S228P, kappa, V domains shown, Humanized, human IgG4/kappa; also called huBSG11F2B7G5E8-V11) VH: EVQLVQSGAEVKKPGATVKISCKVSGFNIKDTYMHWVQQAPGKGLEWMGLIDPTNGYTIYAEKFQGRVTITADTSTDTAYMELSSLRSEDTAVYYCVSRRPWFAYWGQGTLVTVSS VL: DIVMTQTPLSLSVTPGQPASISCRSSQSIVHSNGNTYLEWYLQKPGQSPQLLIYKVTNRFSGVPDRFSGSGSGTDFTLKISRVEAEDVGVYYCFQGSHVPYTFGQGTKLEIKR
7.83

What does the data say about its pKd? Entry: huB8G11F2B7G5E8-V5 (antibody, human IgG4 S228P, kappa, V domains shown, Humanized, human IgG4/kappa; also called huBSG11F2B7G5E8-V5) VH: EVQLVQSGAEVKKPGATVKISCKASGFNIKDTYMHWVKQAPGKGLEWVGRIDPTNGYTIYASKFQGRATITADTSSNTAYMELSSLRSEDTAVYHCVSRRPWFAYWGQGTLVTVSS VL: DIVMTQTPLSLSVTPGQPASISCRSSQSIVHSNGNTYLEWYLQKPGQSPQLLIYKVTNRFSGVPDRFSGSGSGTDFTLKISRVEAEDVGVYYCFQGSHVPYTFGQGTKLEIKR
8.38

What does the data say about its pKd? Entry: huB8G11F2B7G5E8-V10 (antibody, human IgG4 S228P, kappa, V domains shown, Humanized, human IgG4/kappa; also called huBSG11F2B7G5E8-V10) VH: EVQLVQSGAEVKKPGATVKISCKASGFNIKDTYMHWVKQAPGKGLEWVGRIDPTNGYTIYASKFQGRVTITADTSTNTAYMELSSLRSEDTAVYHCVSRRPWFAYWGQGTLVTVSS VL: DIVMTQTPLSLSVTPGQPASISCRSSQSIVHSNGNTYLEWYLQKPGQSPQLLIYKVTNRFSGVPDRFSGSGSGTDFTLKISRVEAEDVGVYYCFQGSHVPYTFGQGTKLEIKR
8.32
